# protocol-notes: probe aNog binding to arrayed compounds – biochemical, biotinylated probe, 635/667 nm fluorescence, primary screen (AID 1115);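 also: probe is biotinylated aNog protein used at 0.15 µg/mL for 1 h at 4 C; z-score combines 667 nm fluorescence of each spot with its signal to noise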
# condition-notes: small-molecule microarray, higher = more signal
Catalogue of composite z-score readings, one per entry.

[[record]]
compound = "COc1ccc(C#Cc2ccc3c(c2)[C@]2(C(=O)N3)[C@H](C(=O)O)[C@H]3C(=O)O[C@H](c4ccccc4)[C@H](c4ccccc4)N3[C@@H]2c2ccc(OCCO)cc2)cc1"
property = "composite z-score"
obs_value = 0.141

[[record]]
compound = "C=CCC(OC(C)=O)[C@@H]1[C@@H](N(Cc2ccc(-c3ccccc3)cc2)C(=O)c2cccc3ccccc23)c2cc(OCCCO)ccc2N1C(=O)c1ccc2ccccc2n1 (stereo partly drawn)"
property = "composite z-score"
obs_value = -0.158


Now look at this entry.
# composite z-score of COC(=O)[C@@]1(Cc2ccc(OC)cc2)[C@H]2c3cc(C(=O)N(C)C)n(Cc4cc(C)n(C)n4)c3C[C@H]2CN1C(=O)c1ccccc1 = 1.11
